- Test system: Hep-2 (Head-neck)
- ASSAY_COMMENT: Sulforhodamine B viable cell assay, 72 hours
- Assay type: cell-based
- CONDITION_INFO: Homo sapiens
pIC50: −log10 of the molar value. Where a name gives a salt, the structure may show the parent alone.

>  <COMPOUND>
CCN(CC)Cc1ccc2cc(COC(=O)Nc3ccc(C(=O)NO)cc3)ccc2c1 [ITF 2357, hydrochloride]

>  <pIC50>
6.00

$$$$

----------
- System: Pes41 (Melanoma)
- ASSAY_COMMENT: Sulforhodamine B viable cell assay, 72 hours
- Assay type: cell-based
- CONDITION_INFO: Homo sapiens
pIC50: −log10 of the molar value. Where a name gives a salt, the structure may show the parent alone.

>  <MOLECULE>
CCN(CC)Cc1ccc2cc(COC(=O)Nc3ccc(C(=O)NO)cc3)ccc2c1 [ITF 2357, hydrochloride]

>  <pIC50>
5.80

$$$$
